System: Candida albicans
method: Antifungal activity against Candida albicans KB fluconazole resistant strain.
Assay type: functional
recorded-metric: MIC (µg/mL)
API: value field is a number in µg/mL; no unit string.

# input Fill in: MIC of `CCCCCCCCCCCCC[C@@H]1CC(=O)N[C@H]([C@@H](C)O)C(=O)N[C@H](C)C(=O)N[C@@H](Cc2ccc(O)cc2)C(=O)N[C@@H](C(C)C)C(=O)N2C[C@H](O)C[C@H]2C(=O)N[C@H]([C@@H](C)O)C(=O)N[C@@H]([C@@H](C)O)C(=O)N2CC[C@H](O)[C@H]2C(=O)N[C@@H]([C@H](O)CC(N)=O)C(=O)NCC(=O)N[C@H]([C@@H](C)O)C(=O)N[C@@H](CCCN(CCCN)C(=O)[C@@H](CCCN)N(CCN)CCN)C(=O)O1` is ___
# output 0.31

---

Tested on: Candida tropicalis
method: Antifungal activity against Candida tropicalis ATCC 13803
Assay type: functional
recorded-metric: MIC (µg/mL)
API: value field is a number in µg/mL; no unit string.

In the examples that follow, each entry is paired with its recorded MIC.
[
  {
    "record-smiles": "CCCCCCCCCCCCC[C@@H]1CC(=O)N[C@@H]([C@@H](C)O)C(=O)N[C@H](C)C(=O)N[C@@H](Cc2ccc(O)cc2)C(=O)N[C@@H](C(C)C)C(=O)N2C[C@H](O)C[C@H]2C(=O)N[C@@H]([C@@H](C)O)C(=O)N[C@@H]([C@@H](C)O)C(=O)N2CC[C@H](O)[C@H]2C(=O)N[C@@H]([C@H](O)CC(N)=O)C(=O)NCC(=O)N[C@@H]([C@@H](C)O)C(=O)N[C@@H](CCCNC(=O)[C@@H](CCCN)N(CCN)CCN)C(=O)O1",
    "recorded-metric": "MIC",
    "meas-value": 0.35
  },
  {
    "record-smiles": "CCCCCCCCCCCCC[C@@H]1CC(=O)N[C@H]([C@@H](C)O)C(=O)N[C@H](C)C(=O)N[C@@H](Cc2ccc(O)cc2)C(=O)N[C@@H](C(C)C)C(=O)N2C[C@H](O)C[C@H]2C(=O)N[C@H]([C@@H](C)O)C(=O)N[C@@H]([C@@H](C)O)C(=O)N2CC[C@H](O)[C@H]2C(=O)N[C@@H]([C@H](O)CC(N)=O)C(=O)NCC(=O)N[C@H]([C@@H](C)O)C(=O)N[C@@H](CCCN(CCCN)C(=O)[C@@H](CCCN)N(CCN)CCN)C(=O)O1",
    "recorded-metric": "MIC",
    "meas-value": 0.56
  },
  {
    "record-smiles": "CCCCCCCCCCCCC[C@@H]1CC(=O)N[C@H]([C@@H](C)O)C(=O)N[C@H](C)C(=O)N[C@@H](Cc2ccc(O)cc2)C(=O)N[C@@H](C(C)C)C(=O)N2C[C@H](O)C[C@H]2C(=O)N[C@H]([C@@H](C)O)C(=O)N[C@@H]([C@@H](C)O)C(=O)N2CC[C@H](O)[C@H]2C(=O)N[C@@H]([C@H](O)CC(N)=O)C(=O)NCC(=O)N[C@H]([C@@H](C)O)C(=O)N[C@@H](CCCN(CCCN)C(=O)[C@H](CCCN)N(CCN)CCN)C(=O)O1",
    "recorded-metric": "MIC",
    "meas-value": 0.63
  }
]

Continue with the next molecule.
# input Fill in: MIC of `CCCCCCCCCCCCC[C@@H]1CC(=O)N[C@@H]([C@@H](C)O)C(=O)N[C@H](C)C(=O)N[C@@H](Cc2ccc(O)cc2)C(=O)N[C@@H](C(C)C)C(=O)N2C[C@H](O)C[C@H]2C(=O)N[C@@H]([C@@H](C)O)C(=O)N[C@@H]([C@@H](C)O)C(=O)N2CC[C@H](O)[C@H]2C(=O)N[C@@H]([C@H](O)CC(N)=O)C(=O)NCC(=O)N[C@@H]([C@@H](C)O)C(=O)N[C@@H](CCCN(CCN)C(=O)[C@H](CCCN)N(CCN)CCN)C(=O)O1` is ___
# output 0.62

---

Read-out record for Beta-1,3-glucan synthase (Candida albicans, UniProt O13428): pIC50
In textbook form, pIC50 equals minus log to base ten of the concentration in mol/L.

In the examples that follow, each entry is paired with its recorded pIC50.
[
  {
    "compound": "CCCCCCCCCCCCC[C@@H]1CC(=O)N[C@H]([C@@H](C)O)C(=O)N[C@H](C)C(=O)N[C@@H](Cc2ccc(O)cc2)C(=O)N[C@@H](C(C)C)C(=O)N2C[C@H](O)C[C@H]2C(=O)N[C@H]([C@@H](C)O)C(=O)N[C@@H]([C@@H](C)O)C(=O)N2CC[C@H](O)[C@H]2C(=O)N[C@@H]([C@H](O)CC(N)=O)C(=O)NCC(=O)N[C@H]([C@@H](C)O)C(=O)N[C@@H](CCCN(CCCN)C(=O)[C@@H](CCCN)N(CCN)CCN)C(=O)O1",
    "assayed-system": "Beta-1,3-glucan synthase (Candida albicans, UniProt O13428)",
    "recorded-metric": "pIC50",
    "meas-value": 9.60
  },
  {
    "compound": "CCCCCOc1ccc(-c2ccc(-c3ccc(C(=O)N[C@@H]4C[C@@H](O)[C@@H](O)NC(=O)C5[C@@H](OC)[C@@H](OC)CN5C(=O)[C@H]([C@@H](C)O)NC(=O)[C@H]([C@H](O)[C@@H](O)c5ccc(O)cc5)NC(=O)[C@@H]5C[C@@H](O)CN5C(=O)[C@H]([C@@H](C)O)NC4=O)cc3)cc2)cc1 (stereo partly drawn)",
    "assayed-system": "Beta-1,3-glucan synthase (Candida albicans, UniProt O13428)",
    "recorded-metric": "pIC50",
    "meas-value": 7.74
  }
]

Continue with the next compound.
# input Which measured pIC50 belongs to `CCCCCCCCCCCCC[C@@H]1CC(=O)N[C@@H]([C@@H](C)O)C(=O)N[C@H](C)C(=O)N[C@@H](Cc2ccc(O)cc2)C(=O)N[C@@H](C(C)C)C(=O)N2C[C@H](O)C[C@H]2C(=O)N[C@@H]([C@@H](C)O)C(=O)N[C@@H]([C@@H](C)O)C(=O)N2CC[C@H](O)[C@H]2C(=O)N[C@@H]([C@H](O)CC(N)=O)C(=O)NCC(=O)N[C@@H]([C@@H](C)O)C(=O)N[C@@H](CCCN(CCCN)C(=O)[C@@H](N)CCCN)C(=O)O1` , tested on Beta-1,3-glucan synthase (Candida albicans, UniProt O13428)?
# output 9.05

---

Tested on: Candida albicans
method: Antifungal activity against Candida albicans ATCC 48130
Format: functional
recorded-metric: MIC (µg/mL)
API: value field is a number in µg/mL; no unit string.

[
  {
    "record-smiles": "CCCCCCCCCCCCC[C@@H]1CC(=O)N[C@@H]([C@@H](C)O)C(=O)N[C@H](C)C(=O)N[C@@H](Cc2ccc(O)cc2)C(=O)N[C@@H](C(C)C)C(=O)N2C[C@H](O)C[C@H]2C(=O)N[C@@H]([C@@H](C)O)C(=O)N[C@@H]([C@@H](C)O)C(=O)N2CC[C@H](O)[C@H]2C(=O)N[C@@H]([C@H](O)CC(N)=O)C(=O)NCC(=O)N[C@@H]([C@@H](C)O)C(=O)N[C@@H](CCCNC(=O)[C@@H](CCCN)N(CCN)CCN)C(=O)O1",
    "MIC / µg/mL": 0.31
  },
  {
    "record-smiles": "CCCCCCCCCCCCC[C@@H]1CC(=O)N[C@@H]([C@@H](C)O)C(=O)N[C@H](C)C(=O)N[C@@H](Cc2ccc(O)cc2)C(=O)N[C@@H](C(C)C)C(=O)N2C[C@H](O)C[C@H]2C(=O)N[C@@H]([C@@H](C)O)C(=O)N[C@@H]([C@@H](C)O)C(=O)N2CC[C@H](O)[C@H]2C(=O)N[C@@H]([C@H](O)CC(N)=O)C(=O)NCC(=O)N[C@@H]([C@@H](C)O)C(=O)N[C@@H](CCCN(CCN)C(=O)[C@H](CCCN)N(CCN)CCN)C(=O)O1",
    "MIC / µg/mL": 0.37
  },
  {
    "record-smiles": "CCCCCCCCCCCCC[C@@H]1CC(=O)N[C@H]([C@@H](C)O)C(=O)N[C@H](C)C(=O)N[C@@H](Cc2ccc(O)cc2)C(=O)N[C@@H](C(C)C)C(=O)N2C[C@H](O)C[C@H]2C(=O)N[C@H]([C@@H](C)O)C(=O)N[C@@H]([C@@H](C)O)C(=O)N2CC[C@H](O)[C@H]2C(=O)N[C@@H]([C@H](O)CC(N)=O)C(=O)NCC(=O)N[C@H]([C@@H](C)O)C(=O)N[C@@H](CCCN(CCCN)C(=O)[C@@H](CCCN)N(CCN)CCN)C(=O)O1",
    "MIC / µg/mL": 0.37
  }
]

Continue with the next molecule.
# input Fill in: MIC of `CCCCCCCCCCCCC[C@@H]1CC(=O)N[C@H]([C@@H](C)O)C(=O)N[C@H](C)C(=O)N[C@@H](Cc2ccc(O)cc2)C(=O)N[C@@H](C(C)C)C(=O)N2C[C@H](O)C[C@H]2C(=O)N[C@H]([C@@H](C)O)C(=O)N[C@@H]([C@@H](C)O)C(=O)N2CC[C@H](O)[C@H]2C(=O)N[C@@H]([C@H](O)CC(N)=O)C(=O)NCC(=O)N[C@H]([C@@H](C)O)C(=O)N[C@@H](CCCN(CCCN)C(=O)[C@H](CCCN)N(CCN)CCN)C(=O)O1` is ___
# output 0.41
